# TEST_TARGET: T1, Human CD228 protein (human, UniProt P08582 20-708, limits assumed)
# T1 construct: Recombinant protein made in CHO cells, purified over a Ni column; The printed entry begins with the leader (MRGPSG...) and ends with ten His; also called hCD228; CD228-His protein
# T1 sequence: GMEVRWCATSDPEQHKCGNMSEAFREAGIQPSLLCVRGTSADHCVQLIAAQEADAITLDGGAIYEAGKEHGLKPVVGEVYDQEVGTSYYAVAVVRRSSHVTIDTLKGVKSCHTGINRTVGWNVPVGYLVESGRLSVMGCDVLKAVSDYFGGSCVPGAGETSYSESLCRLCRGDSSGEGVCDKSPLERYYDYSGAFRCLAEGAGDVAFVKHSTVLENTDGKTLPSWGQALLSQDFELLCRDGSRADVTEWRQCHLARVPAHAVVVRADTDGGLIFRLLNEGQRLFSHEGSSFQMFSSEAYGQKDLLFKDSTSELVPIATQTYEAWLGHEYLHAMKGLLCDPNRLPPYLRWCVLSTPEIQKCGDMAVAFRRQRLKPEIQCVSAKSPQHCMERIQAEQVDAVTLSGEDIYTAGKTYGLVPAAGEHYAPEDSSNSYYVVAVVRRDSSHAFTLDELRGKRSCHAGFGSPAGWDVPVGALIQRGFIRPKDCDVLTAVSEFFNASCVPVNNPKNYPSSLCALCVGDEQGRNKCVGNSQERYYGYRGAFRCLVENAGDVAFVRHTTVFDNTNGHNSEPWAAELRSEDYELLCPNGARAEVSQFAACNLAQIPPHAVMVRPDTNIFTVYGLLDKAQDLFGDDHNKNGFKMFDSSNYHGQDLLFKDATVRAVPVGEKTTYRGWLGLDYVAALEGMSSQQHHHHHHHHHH
# PROCEDURE_TEXT: Octet competition on His-chip CD228; competitor: hl49
OBSERVED_PROPERTY: Octet response value
Simply state the number, no unit and no words.

The reported value for CA185 (antibody, human IgG1, kappa, V domains shown, Intact IgG1) VH: EVQLVESGGGVVQPGRSLRLSCAASGFTFSSYAMHWVRQAPGKGLEWVAVISYDGSNKYYADSVKGRFTISRDNSKNTLYLQMNSLRAEDTAVYYCAREVPYYYGSGPFDYWGQGTLVTVSS VL: EIVLTQSPGTLSLSPGERATLSCRASQSVSSSSLAWYQQKPGQAPRHLIDGASSRASGIPDRFSGSGSGTDFTLTISRLEPEDFAVYYCQQYGSSYTFGQGTKVDIKR in terms of Octet response value is 0.356
